# Tested on: U2-OS human osteosarcoma cell line
# assay_protocol: Cytotoxicity in U2-OS cell line
# Assay type: cell-based
# condition_context: read-out: IC50 (nM) of compound
assay_endpoint: IC50 (nM)
Please state the figure in nM; there is no need to write the unit.

Here is how some compounds turned out for IC50.
| compound | assayed_system | measure_unit | IC50 |
| --- | --- | --- | --- |
| COc1cc(C(=O)OC(C(N)=O)[C@]2(C)CO2)c2ccccc2c1 (stereo partly drawn) [(2R, 3S)-1] | U2-OS human osteosarcoma cell line | nM | 40 |
| COc1cc(C(=O)OC(C(N)=O)[C@]2(C)CO2)c2ccccc2c1 (stereo partly drawn) [(2S, 3S)-1] | U2-OS human osteosarcoma cell line | nM | 15 |
| COc1cc(C(=O)OC(C(N)=O)[C@]2(C)CO2)c2ccccc2c1 (stereo partly drawn) [(2R, 3R)-1] | U2-OS human osteosarcoma cell line | nM | 40 |

Data request: # query: IC50 of entry COc1cc(C(=O)OC(C(N)=O)[C@]2(C)CO2)c2ccccc2c1 (stereo partly drawn) [(2S, 3R)-1]
Data returned: 120

----------
# System: HoeR (Hoechst415 resistant version of U2-OS)
# assay_protocol: Cytotoxicity in HoeR cell line
# Assay type: cell-based, human
# condition_context: read-out: IC50 (nM) of compound
# Text: Initial cytotoxicity studies were in the performed U2-OS and HoeR cell lines. The U2-OS is a human osteosarcoma cell line and HoeR is a DNA minor groove binder-resistant variant of this. Both are available from the American Type Culture Collection (ATCC), Dr. Raymon H. 10801 University Boulevard, Manassas, Va., 20110-2209, USA.
Reported values of IC50 for individual entries

Here is how some compounds turned out for IC50.
| compound | assayed_system | IC50 |
| --- | --- | --- |
| COc1cc(C(=O)OC(C(N)=O)[C@]2(C)CO2)c2ccccc2c1 (stereo partly drawn) [(2S, 3R)-1] | HoeR (Hoechst415 resistant version of U2-OS) | 121 nM |
| COc1cc(C(=O)OC(C(N)=O)[C@]2(C)CO2)c2ccccc2c1 (stereo partly drawn) [(2R, 3R)-1] | HoeR (Hoechst415 resistant version of U2-OS) | 40 nM |
| COc1cc(C(=O)OC(C(N)=O)[C@]2(C)CO2)c2ccccc2c1 (stereo partly drawn) [(2R, 3S)-1] | HoeR (Hoechst415 resistant version of U2-OS) | 45 nM |

Data request: # query: IC50 of entry COc1cc(C(=O)OC(C(N)=O)[C@]2(C)CO2)c2ccccc2c1 (stereo partly drawn) [(2S, 3S)-1]
Data returned: 14 nM

----------
# Tested on: U2-OS human osteosarcoma cell line
# assay_protocol: Cytotoxicity in U2-OS cell line
# Type: cell-based
# condition_context: Homo sapiens, U2OS, read-out: IC50 (nM) of compound
# Text: Initial cytotoxicity studies were in the performed U2-OS and HoeR cell lines. The U2-OS is a human osteosarcoma cell line and HoeR is a DNA minor groove binder-resistant variant of this. Both are available from the American Type Culture Collection (ATCC), Dr. Raymon H. 10801 University Boulevard, Manassas, Va., 20110-2209, USA.
assay_endpoint: IC50

Data request: # query: IC50 of entry C=C(C)[C@@H](OC(=O)c1cc(OC)cc2c(C)cccc12)C(N)=O
Data returned: > 10000 nM
